The measurements presented in this section are drawn from patent US6156757A.

Target: cloned human α2B receptors (Homo sapiens, UniProt P18089)
Construct: expressed in transfected cells; host or cells: CHO cells
Sequence (P18089 whole entry): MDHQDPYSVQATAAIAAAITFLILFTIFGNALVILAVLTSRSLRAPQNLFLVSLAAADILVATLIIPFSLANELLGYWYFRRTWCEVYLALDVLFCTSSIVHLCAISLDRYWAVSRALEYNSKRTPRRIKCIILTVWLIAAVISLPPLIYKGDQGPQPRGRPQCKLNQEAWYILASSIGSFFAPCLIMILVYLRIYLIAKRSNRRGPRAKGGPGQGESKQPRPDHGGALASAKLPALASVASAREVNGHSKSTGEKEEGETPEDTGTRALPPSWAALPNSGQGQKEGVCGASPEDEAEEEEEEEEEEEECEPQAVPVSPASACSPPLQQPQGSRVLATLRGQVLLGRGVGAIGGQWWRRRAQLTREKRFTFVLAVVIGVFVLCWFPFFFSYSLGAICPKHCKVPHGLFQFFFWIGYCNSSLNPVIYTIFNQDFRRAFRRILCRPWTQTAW
Experiment: In vitro binding affinity for α2B receptors (3H-rauwolscine competition binding)
Settings: at a test concentration of 10^-8 M or less; CHO cell expressing cloned human α2B receptors
outcome measure: inhibition at up to 0.01 µM

As a guide, the following entries are already answered.
Exam item: Reported inhibition at up to 0.01 µM for Cc1nc2n(C)c(C)cn2c(=O)c1CCN1CCc2oc3ccccc3c2C1 : what is it?
Marked response: > 50%

Exam item: Repeat with Cc1nc2ccc(Br)cn2c(=O)c1CCN1CCc2oc3ccccc3c2C1
Marked response: > 50%

Exam item: Entry Cc1nc2sc3ccccc3n2c(=O)c1CCN1CCc2oc3ccccc3c2C1 please
Marked response: > 50%

New cases:
Exam item: I would be grateful if you could share the reported inhibition at up to 0.01 µM for CSc1nc(C)c(CCN2CCc3oc4ccccc4c3C2)c(=O)n1C .
Marked response: > 50%

Exam item: Please do the same for O=c1[nH]c2ccccc2n1CCN1CCc2oc3ccccc3c2C1 as well.
Marked response: > 50%
